Source of measurements: patent US9884823B2

# System: Abutilon
# ASSAY_TEXT: Potted plants live body test
# Assay type: in vivo
# SETUP_CONDITIONS: Pre-emergence soil treatment; 150 g a.i./ha; 30 days; Table 9
Each item that follows carries a reported efficiency, Abutilon.

- SMILES_ENTRY: "CON=C(C(=O)OC)c1ccccc1COc1ccc(-c2ncc(Cl)cc2Cl)cc1"
  efficiency, Abutilon, %: 100
- SMILES_ENTRY: "CON=C(C(=O)OC)c1ccccc1COc1cccc(-c2ncc(Cl)cc2Cl)c1"
  efficiency, Abutilon, %: 60
- SMILES_ENTRY: "CON=C(C(=O)OC)c1ccccc1COc1cccc(-c2cccc(C)n2)c1"
  efficiency, Abutilon, %: 20
- SMILES_ENTRY: "CON=C(C(=O)OC)c1ccccc1COc1cccc(-c2ncccc2C)c1"
  efficiency, Abutilon, %: 0
- SMILES_ENTRY: "CON=C(C(=O)OC)c1ccccc1COc1ccc(-c2ccc(Cl)cn2)cc1"
  efficiency, Abutilon, %: 0
- SMILES_ENTRY: "CON=C(C(=O)OC)c1ccccc1COc1cccc(-c2ncc(C(F)(F)F)cc2Cl)c1"
  efficiency, Abutilon, %: 100

###

# Tested on: amaranthus retroflexus
# ASSAY_TEXT: Potted plants live body test
# Assay type: in vivo
# SETUP_CONDITIONS: Postemergence spraying; 150 g a.i./ha; 30 days; Table 9

- SMILES_ENTRY: "CON=C(C(=O)OC)c1ccccc1COc1ccc(-c2ncc(Cl)cc2Cl)cc1"
  UNITS_SYMBOL: "%"
  efficiency, amaranthus retroflexus: 100
- SMILES_ENTRY: "CON=C(C(=O)OC)c1ccccc1COc1cccc(-c2ncc(Cl)cc2Cl)c1"
  UNITS_SYMBOL: "%"
  efficiency, amaranthus retroflexus: 80
- SMILES_ENTRY: "CON=C(C(=O)OC)c1ccccc1COc1cccc(-c2ccc(Cl)cn2)c1"
  UNITS_SYMBOL: "%"
  efficiency, amaranthus retroflexus: 50
- SMILES_ENTRY: "CON=C(C(=O)OC)c1ccccc1COc1cccc(-c2ncccc2C)c1"
  UNITS_SYMBOL: "%"
  efficiency, amaranthus retroflexus: 20
- SMILES_ENTRY: "CON=C(C(=O)OC)c1ccccc1COc1cc(-c2ccccn2)ccc1C(F)(F)F"
  UNITS_SYMBOL: "%"
  efficiency, amaranthus retroflexus: 80
- SMILES_ENTRY: "CON=C(C(=O)OC)c1ccccc1COc1cccc(-c2ncc(C(F)(F)F)cc2Cl)c1"
  UNITS_SYMBOL: "%"
  efficiency, amaranthus retroflexus: 100
- SMILES_ENTRY: "CON=C(C(=O)OC)c1ccccc1COc1ccc(-c2ccc(Cl)cn2)cc1"
  UNITS_SYMBOL: "%"
  efficiency, amaranthus retroflexus: 80
- SMILES_ENTRY: "CON=C(C(=O)OC)c1ccccc1COc1cccc(-c2nc(Cl)c(Cl)cc2Cl)c1"
  UNITS_SYMBOL: "%"
  efficiency, amaranthus retroflexus: 40
- SMILES_ENTRY: "CON=C(C(=O)OC)c1ccccc1COc1cccc(-c2cccc(C)n2)c1"
  UNITS_SYMBOL: "%"
  efficiency, amaranthus retroflexus: 0
- SMILES_ENTRY: "CON=C(C(=O)OC)c1ccccc1COc1ccc(-c2cccc(C)n2)cc1"
  UNITS_SYMBOL: "%"
  efficiency, amaranthus retroflexus: 20
